- System: TGFBR2
- conditionsUsed: concentration: 1 μM,replicates: in singlicate; n = 1;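 further: KINOMEscan kinase panel screen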
outcomeMeasure: %Inh (%)

>  <molecule>
Cl.Nc1n[nH]c2cc(-c3ccccn3)ccc12

>  <unit>
%

>  <endpointResult>
0

$$$$
>  <molecule>
Cc1ccn2nc(-c3ccc(F)cc3)c(-c3ccncc3)c2c1.Cl

>  <unit>
%

>  <endpointResult>
0

$$$$
>  <molecule>
Cc1nnc(-c2ccc3occ(-c4ccc(S(C)=O)cc4)c3n2)o1 (stereo not drawn)

>  <unit>
%

>  <endpointResult>
0

$$$$

* * *

- System: DDR1
- conditionsUsed: concentration: 1 μM,replicates: in singlicate; n = 1
Measured %Inh values are reported for all entries that follow.
outcomeMeasure: %Inh (%)

>  <molecule>
COC(=O)Nc1nc2cc(Oc3ccc(NC(=O)Nc4cc(C(F)(F)F)ccc4Cl)cc3)ccc2[nH]1.Cl

>  <outcomeMeasure>
%Inh

>  <unit>
%

>  <endpointResult>
100

$$$$
>  <molecule>
Cl.Cl.NC[C@H](CC1CCCCC1)NC(=O)c1ccc(-c2ccnc3[nH]ccc23)s1

>  <outcomeMeasure>
%Inh

>  <unit>
%

>  <endpointResult>
0

$$$$
>  <molecule>
CC(C)c1nc(-c2cccc(NS(=O)(=O)c3ccccc3)c2)c(-c2ccnc(Nc3ccc4c(c3)CN(C)CC4)n2)s1

>  <outcomeMeasure>
%Inh

>  <unit>
%

>  <endpointResult>
100

$$$$
>  <molecule>
CC(C(=O)NC1CCN(c2ccnc(Nc3ccc(F)cc3)n2)C1)c1ccc(Cl)cc1 (stereo not drawn)

>  <outcomeMeasure>
%Inh

>  <unit>
%

>  <endpointResult>
14

$$$$
>  <molecule>
Cl.Nc1n[nH]c2cc(-c3ccccn3)ccc12

>  <outcomeMeasure>
%Inh

>  <unit>
%

>  <endpointResult>
16

$$$$
>  <molecule>
CCCC(=O)Nc1n[nH]c2ncccc12

>  <outcomeMeasure>
%Inh

>  <unit>
%

>  <endpointResult>
0

$$$$

* * *

- Test system: LZK
- Construct: gene MAP3K13
- conditionsUsed: concentration: 1 μM,replicates: in singlicate; n = 1
Quick list: %Inh per entry.

>  <compound>
COc1cccc(OC)c1C(=O)Nc1cccc(-c2nn3ccccc3c2-c2ccnc(Nc3cccc(F)c3)n2)c1

>  <%Inh [%]>
8

$$$$
>  <compound>
Cn1ccc2ncnc(Oc3ccc(NC(=O)Nc4ccnc(C(F)(F)F)c4)c(Cl)c3)c21

>  <%Inh [%]>
7

$$$$
>  <compound>
COc1cc2nccc(Nc3ccc(Oc4ccccc4)cc3)c2cc1OC.Cl

>  <%Inh [%]>
5

$$$$
>  <compound>
COc1cc(Nc2nccc(N3CCC(NC(=O)c4cccc(C#N)c4)C3)n2)cc(OC)c1OC (centres unmarked)

>  <%Inh [%]>
33

$$$$
>  <compound>
CC(=O)Nc1ccc(-c2cc3ncnc(SCC(=O)O)c3s2)cc1

>  <%Inh [%]>
0

$$$$

* * *

We begin with a simple list: items and their reported %Inh.
- Tested on: MEK5
- Construct: gene MAP2K5
- conditionsUsed: concentration: 1 μM,replicates: in singlicate; n = 1

>  <moleculeSmiles>
COC(=O)c1cccc(NC(=O)NC2CCN(c3ccnc(NCc4ccc(F)cc4)n3)CC2)c1

>  <%Inh, %>
8

$$$$
>  <moleculeSmiles>
O=C1NCCc2[nH]c(-c3ccncc3)cc21

>  <%Inh, %>
35

$$$$
>  <moleculeSmiles>
CCCC(=O)Nc1n[nH]c2ncccc12

>  <%Inh, %>
0

$$$$
>  <moleculeSmiles>
Cc1ccc2c(-c3ccnc(Nc4ccc(C(F)(F)F)cc4)n3)cnn2n1

>  <%Inh, %>
33

$$$$
